target: ABL (Homo sapiens, UniProt P00519); test: ABL Kinase Activity Assay (Elisa), ABL; assay type: biochemical; conditions: ATP 100 μM, read-out: Abl Enzymetic assay (Elisa) % inhibition
measuredQuantity: inhibition at 10 µM

Fc1ccc(CCNc2ncc3c(n2)-c2cccnc2Nc2cnccc2-3)cc1 ... 80 to 100%

Which inhibition at 10 µM value belongs to Cc1ccc(CCNc2ncc3c(n2)-c2cccnc2Nc2cnccc2-3)cc1 ?
80 to 100%

What measured inhibition at 10 µM goes with Cc1cccc(CCNc2ncc3c(n2)-c2cccnc2Nc2cnccc2-3)c1 ?
80 to 100%

Entry Fc1ccc(CNc2ncc3c(n2)-c2cccnc2Nc2ccccc2-3)c(F)c1 : reported inhibition at 10 µM = ?
50 to 79%

* * *

tested on: MDA-MB-231; assay: MTS assay, MDA-MB-231 cells; type: cell-based; details: Homo sapiens, 72 hours
measuredQuantity: inhibition at 10 µM

Solved entries (count: 6):
O[C@H]1CC[C@H](Nc2ncc3c(n2)-c2cccnc2Nc2cnccc2-3)CC1 [Example 27] ... 50 to 79%
COc1cccc(CCNc2ncc3c(n2)-c2cccnc2Nc2cnccc2-3)c1 [Example 24] ... < 50%
Fc1ccc(CNc2ncc3c(n2)-c2cccnc2Nc2cnccc2-3)cc1Cl [Example 9] ... < 50%
Nc1ncc2c(n1)-c1cccnc1Nc1ccccc1-2 [Example 62] ... < 50%
COc1ccc(CCNc2ncc3c(n2)-c2cccnc2Nc2cnccc2-3)cc1OC [Example 14] ... < 50%
c1ccc(OCCNc2ncc3c(n2)-c2cccnc2Nc2cnccc2-3)cc1 [Example 26] ... < 50%

Entry Fc1ccc(CNc2ncc3c(n2)-c2cccnc2Nc2cnccc2-3)c(Cl)c1 [Example 10] has what inhibition at 10 µM?
< 50%

* * *

target: ABL T315I (Homo sapiens, UniProt P00519, T315I); assay: ABL Kinase Activity Assay (Elisa), ABL T315I; format: biochemical; conditions: ATP 100 μM, read-out: Abl(T315I) Enzymetic assay (Elisa) % inhibition
measuredQuantity: inhibition at 10 µM

The examples below pair each entry with its known result.
Cc1cccc(CNc2ncc3c(n2)-c2cccnc2Nc2cnccc2-3)c1 [Example 40] ... 80 to 100%
Nc1ncc2c(n1)-c1cccnc1Nc1ccccc1-2 [Example 62] ... 50 to 79%
Fc1cccc(CNc2ncc3c(n2)-c2cccnc2Nc2cnccc2-3)c1 [Example 39] ... 80 to 100%

What is its inhibition at 10 µM for ABL T315I (Homo sapiens, UniProt P00519, T315I)? Entry: CN(C)CCCNc1ncc2c(n1)-c1cccnc1Nc1cnccc1-2 [Example 50]
< 50%

inhibition at 10 µM of FC(F)(F)c1cccc(CNc2ncc3c(n2)-c2cccnc2Nc2cnccc2-3)c1 [Example 30] on ABL T315I (Homo sapiens, UniProt P00519, T315I)?
80 to 100%

API: value(readout= inhibition at 10 µM, system= ABL T315I (Homo sapiens, UniProt P00519, T315I), query= CCC(CC)Nc1ncc2c(n1)-c1cccnc1Nc1cnccc1-2 [Example 18] )
80 to 100%

# get_value(readout= inhibition at 10 µM, system= ABL T315I (Homo sapiens, UniProt P00519, T315I)) for c1ccc(OCCNc2ncc3c(n2)-c2cccnc2Nc2cnccc2-3)cc1 [Example 26]
80 to 100%

* * *

Molecular target: UniProt P00519
Assay: ABL Kinase Activity Assay (Elisa), ABL
Assay type: biochemical
Conditions: ATP 100 μM, read-out: Abl Enzymetic assay (Elisa) % inhibition
Experimental: ABL Kinase Activity Assay The disclosed compounds were assayed for their ability to inhibit the activity of ABL kinase. Nunc Maxisorb plates were coated with streptavidin by overnight incubation with 100 μL per well of 1 μg/ml streptavidin in DPBS. […] The fluorescent readout was initiated by the addition of 100 μl/well of Attophos reagent (6 mg/10 mL). The reading was done on the Perkin Elmer Envision system.
measuredQuantity: inhibition at 10 µM

Recorded results for 5 compounds are shown here.
c1cnc2c(c1)-c1nc(NCC3CCNCC3)ncc1-c1ccncc1N2 [Example 60] ... 50 to 79%
c1cnc2c(c1)-c1nc(NC3CCNCC3)ncc1-c1ccncc1N2 [Example 59] ... 80 to 100%
CN(C)CCCNc1ncc2c(n1)-c1cccnc1Nc1cnccc1-2 [Example 50] ... 50 to 79%
Cc1cccc2c(CCNc3ncc4c(n3)-c3cccnc3Nc3cnccc3-4)c[nH]c12 [Example 52] ... 80 to 100%
COc1cccc(CCNc2ncc3c(n2)-c2cccnc2Nc2cnccc2-3)c1 [Example 24] ... 80 to 100%

What value of inhibition at 10 µM has been reported for the following compound? Fc1ccc(CNc2ncc3c(n2)-c2cccnc2Nc2cnccc2-3)cc1 [Example 11]
80 to 100%

Param item = CN(C)CCCCCNc1ncc2c(n1)-c1cccnc1Nc1cnccc1-2 [Example 48] ; retrieve measured inhibition at 10 µM.
80 to 100%

Record request: inhibition at 10 µM value, item CCN(CC)CCCNc1ncc2c(n1)-c1cccnc1Nc1cnccc1-2 [Example 44]
< 50%

What value of inhibition at 10 µM has been reported for the following compound? O=C1CCCN1CCCNc1ncc2c(n1)-c1cccnc1Nc1cnccc1-2 [Example 4]
50 to 79%

Look up inhibition at 10 µM for this compound: COc1cc(CCNc2ncc3c(n2)-c2cccnc2Nc2cnccc2-3)cc(OC)c1 [Example 38]
50 to 79%

Please give the measured inhibition at 10 µM for this compound: Cc1ccccc1CCNc1ncc2c(n1)-c1cccnc1Nc1cnccc1-2 [Example 15]
80 to 100%

What value of measured inhibition at 10 µM is listed for COc1ccc(CCNc2ncc3c(n2)-c2cccnc2Nc2cnccc2-3)cc1 [Example 42] ?
80 to 100%

Which value of inhibition at 10 µM has been reported for c1ccc(-c2ccc(CNc3ncc4c(n3)-c3cccnc3Nc3cnccc3-4)cc2)cc1 [Example 34] in the records?
80 to 100%

* * *

inhibition at 10 µM for assorted molecules
system: MDA-MB-231; test: MTS assay, MDA-MB-231 cells; assay type: cell-based; settings: Homo sapiens, 72 hours

# example entries with known answers
CC(=O)N1CCN(c2ncc3c(n2)-c2cccnc2Nc2cnccc2-3)CC1 ... 80 to 100%
CCN(CC)CCCNc1ncc2c(n1)-c1cccnc1Nc1cnccc1-2 ... < 50%
OCCc1cccc(Nc2ncc3c(n2)-c2cccnc2Nc2cnccc2-3)c1 ... < 50%
COc1ccc(CCNc2ncc3c(n2)-c2cccnc2Nc2cnccc2-3)cc1 ... < 50%
Cc1cccc(CCNc2ncc3c(n2)-c2cccnc2Nc2cnccc2-3)c1 ... < 50%

Field: next molecule
Notebook: pull reported inhibition at 10 µM for MDA-MB-231, entry CC(=O)N1CCN(c2ncc3c(n2)-c2cccnc2Nc2ccccc2-3)CC1
80 to 100%

* * *

biological target: ABL T315I (Homo sapiens, UniProt P00519, T315I); assay: ABL Kinase Activity Assay (Elisa), ABL T315I; type: biochemical; conditions: ATP 100 μM, read-out: Abl(T315I) Enzymetic assay (Elisa) % inhibition
Each entry below carries its reported inhibition at 10 µM.

For the compound Clc1ccccc1CNc1ncc2c(n1)-c1cccnc1Nc1cnccc1-2 [Example 8] , what inhibition at 10 µM is on record?
80 to 100%

// inhibition at 10 µM lookup, key: c1cnc2c(c1)-c1nc(NCC3CCNCC3)ncc1-c1ccncc1N2 [Example 60]
< 50%

* * *

tested on: MDA-MB-231; experiment: MTS assay, MDA-MB-231 cells; assay type: cell-based; conditions: Homo sapiens, 72 hours
Parameter inhibition at 10 µM: see the listing below.

Example entries begin here.
CN(C)CCCCNc1ncc2c(n1)-c1cccnc1Nc1cnccc1-2 [Example 51] ... 80 to 100%
Cc1cccc2c(CCNc3ncc4c(n3)-c3cccnc3Nc3ccccc3-4)c[nH]c12 [Example 65] ... 50 to 79%
Clc1ccccc1CNc1ncc2c(n1)-c1cccnc1Nc1cnccc1-2 [Example 8] ... 80 to 100%

State the recorded inhibition at 10 µM for this entry: CC(C)(C)C(=O)N1CCN(c2ncc3c(n2)-c2cccnc2Nc2cnccc2-3)CC1 [Example 58]
< 50%

Entry under review: COc1ccc(CNc2ncc3c(n2)-c2cccnc2Nc2cnccc2-3)cc1OC [Example 47] . Reported inhibition at 10 µM?
< 50%

Param item = Fc1ccc(CNc2ncc3c(n2)-c2cccnc2Nc2cnccc2-3)cc1 [Example 11] ; retrieve measured inhibition at 10 µM.
80 to 100%

inhibition at 10 µM lookup needed for Fc1ccccc1CNc1ncc2c(n1)-c1cccnc1Nc1cnccc1-2 [Example 20] , thanks.
< 50%

Form field: reported inhibition at 10 µM of CCCN1CCC(Nc2ncc3c(n2)-c2cccnc2Nc2cnccc2-3)CC1 [Example 23]
80 to 100%

// returns reported inhibition at 10 µM for input c1ccc(-c2ncc3c(n2)-c2cccnc2Nc2cnccc2-3)cc1 [Example 54]
< 50%
